- Tested on: K-562 leukemia
- assayText: NCI tumour cell line growth inhibition, 48 h
parameter: GI50

Use the examples below as a reference point.
O=C(Nc1cccc(-n2ccc3c(NC(=O)c4ccccc4)nccc32)c1)c1cc(N2CCOCC2)cc(C(F)(F)F)c1 ... 50.6 nM
Cc1ccc(C[P+](c2ccccc2)(c2ccccc2)c2ccccc2)cc1 ... 574 nM
OCc1ccc(Oc2c3ccccc3nc3occc23)cc1 ... 30900 nM
COc1cc2c3c(n(CCCNCCNCCCN)c(=O)c2cc1OC)-c1cc2c(cc1C3=O)OCO2 ... 3430 nM
Cc1ccc(F)cc1NC(=O)c1cc(Cl)ccc1Nc1ccccc1 ... 67600 nM
COc1cc(/C=C2\C(=O)Nc3ccccc32)cc(OC)c1OC ... 4480 nM
Cc1ccc(/C(=C/C=C(C#N)C#N)Sc2ccccn2)cc1 ... 1550 nM
COc1ccc2[nH]cc(-c3nc(-c4c[nH]c5ccncc45)cs3)c2c1 ... 1720 nM
CNCCOC(=O)/C=C1/CCC2C(C(O)CC3C(C)(C(=O)OC)CCCC23C)C1C (stereo not given) ... 30.8 nM

Kindly review the next compound as well.
Q: Recorded GI50 for NC1=NC(c2ccc(F)cc2)C2=C(N1)c1ccc3ccccc3c1OCC2 (stereo not given) with K-562 leukemia, please?
Result: 3100 nM
